Would you mind telling me the reported EC50 of each entry?
molecular target: SARS-COV-2 RBD (SARS-COV-2, UniProt P0DTC2 319-539); assay: ELISA, RBD coated
Numeric only. Scale: µg/mL

stdin: Param item = C088 (antibody, V domains shown) VH: QVQLVQSGAEAKKPGASVKVSCKTSGYTFTNYFMHWVRQAPGQGPEWMGIIDSSDGGASYAQKFQGRVTMTRDTSTSTVYMELRSLKFEDTAVYYCARASTSTTSWSDALSLGSWGQGTLVTVSS VL: QSVLTQPPSVSGAPGQRVTISCTGSSSNIGGGSVVHWYQQLPGTAPKLLIYANSNRPSGVPDRFSGSKSGTSASLAIAGLQAEDEADYYCQSWDNGLSASGVVFGGGTKLTVL ; retrieve measured EC50.
stdout: 0.00244

stdin: Param item = C050 (antibody, V domains shown) VH: EVQLVESGGGLFQPGGSLRLSCAASGFSVRNNYVSWVRQAPGKGLEWVSVIYSGGTTYYADSVKGRFTISRDISENTLYLQMNSLRAEDTAVYYCAREGDVEGLHDFWSGYSRDRYYFDYWGQGTLVTVSS VL: QSALTQPASVSGSPGQSIIISCTGTSGDIGGYNYVSWYQQHPGKAPKLMIYDVSFRPSGVSNRFSGSKSDNTASLTISGLQAEDEADYYCSSFTGNNTRVFGTGTKVTVL ; retrieve measured EC50.
stdout: 0.193
